- experimental.details: self-splicing fitness, log relative to wild type (ln ratio); higher = more splicing; Tetrahymena group I intron in knt gene, E. coli kanamycin selection, DiMSum; sequences stand for … in CUCUCU…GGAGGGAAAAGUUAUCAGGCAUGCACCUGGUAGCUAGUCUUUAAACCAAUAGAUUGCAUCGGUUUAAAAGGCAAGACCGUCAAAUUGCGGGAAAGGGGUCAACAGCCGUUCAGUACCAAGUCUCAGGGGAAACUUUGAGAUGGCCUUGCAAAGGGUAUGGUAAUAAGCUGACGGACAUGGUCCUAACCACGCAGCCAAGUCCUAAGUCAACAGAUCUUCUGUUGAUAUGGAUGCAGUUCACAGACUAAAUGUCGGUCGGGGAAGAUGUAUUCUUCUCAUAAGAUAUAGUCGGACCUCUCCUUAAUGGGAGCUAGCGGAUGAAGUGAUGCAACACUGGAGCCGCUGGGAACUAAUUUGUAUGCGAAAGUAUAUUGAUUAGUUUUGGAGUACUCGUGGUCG;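 further: selection with 25 µg/mL kanamycin versus none on LB agar overnight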
- run.parameters: 30 °C
measured.parameter: self-splicing fitness (ln)

>  <sequence.record>
GAUGAGCAAUAUUACGUCCC

>  <result>
-2.06

$$$$
>  <sequence.record>
AUAAAGCAAUAUUACGUAUG

>  <result>
-2.13

$$$$
>  <sequence.record>
AGUGAGCAAUAUUACGAACA

>  <result>
-1.77

$$$$
>  <sequence.record>
UCCCAGCAAUAUUACGUUAU

>  <result>
-4.35

$$$$
>  <sequence.record>
AUUUAGCAAUAUUACGGCAG

>  <result>
-2.47

$$$$
>  <sequence.record>
AGCUAGCAAUAUUACGGGCG

>  <result>
-0.507

$$$$
>  <sequence.record>
UCUAAGCAAUAUUACGUUCG

>  <result>
-1.38

$$$$
>  <sequence.record>
GACUAGCAAUAUUACGAGCG

>  <result>
-1.57

$$$$
>  <sequence.record>
ACUAAGCAAUAUUACGAGGA

>  <result>
-2.34

$$$$
>  <sequence.record>
AACUAGCAAUAUUACGGAAG

>  <result>
-2.57

$$$$
>  <sequence.record>
UACUAGCAAUAUUACGACAC

>  <result>
-2.53

$$$$
>  <sequence.record>
UUCCAGCAAUAUUACGUCUG

>  <result>
-2.71

$$$$
>  <sequence.record>
AUUCAGCAAUAUUACGAGCA

>  <result>
-0.457

$$$$
>  <sequence.record>
CGGGAGCAAUAUUACGGUAU

>  <result>
-3.81

$$$$
>  <sequence.record>
AGAAAGCAAUAUUACGAAGU

>  <result>
-3.61

$$$$
>  <sequence.record>
GCGUAGCAAUAUUACGUUGG

>  <result>
-2.62

$$$$

* * *

- experimental.details: self-splicing fitness, log relative to wild type (ln ratio); higher = more splicing; Tetrahymena group I intron in knt gene, E. coli kanamycin selection, DiMSum; sequences stand for … in CUCUCU…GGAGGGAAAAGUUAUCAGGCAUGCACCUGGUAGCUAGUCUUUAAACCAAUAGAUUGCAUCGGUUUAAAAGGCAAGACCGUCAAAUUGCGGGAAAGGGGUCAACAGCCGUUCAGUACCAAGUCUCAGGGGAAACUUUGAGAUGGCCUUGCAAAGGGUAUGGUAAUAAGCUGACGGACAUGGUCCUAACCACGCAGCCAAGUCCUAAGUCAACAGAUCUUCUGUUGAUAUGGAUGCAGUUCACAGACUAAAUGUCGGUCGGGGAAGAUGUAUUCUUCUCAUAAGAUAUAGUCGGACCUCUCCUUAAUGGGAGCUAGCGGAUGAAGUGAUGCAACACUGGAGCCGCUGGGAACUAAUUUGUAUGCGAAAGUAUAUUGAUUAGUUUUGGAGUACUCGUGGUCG
- run.parameters: 37 °C

>  <sequence.record>
UAUUAGCAAUAUUACGGCUG

>  <self-splicing fitness (ln)>
0.0834

$$$$
>  <sequence.record>
CUUGAGCAAUAUUACGGGUG

>  <self-splicing fitness (ln)>
-0.485

$$$$
>  <sequence.record>
CACCAGCAAUAUUACGGAAU

>  <self-splicing fitness (ln)>
-2.18

$$$$
>  <sequence.record>
CAAUAGCAAUAUUACGUGAG

>  <self-splicing fitness (ln)>
0.678

$$$$
>  <sequence.record>
GUGAAGCAAUAUUACGACAC

>  <self-splicing fitness (ln)>
0.386

$$$$
>  <sequence.record>
CGUUAGCAAUAUUACGACCU

>  <self-splicing fitness (ln)>
-0.596

$$$$
>  <sequence.record>
UACGAGCAAUAUUACGUGAC

>  <self-splicing fitness (ln)>
-1.76

$$$$
>  <sequence.record>
UACAAGCAAUAUUACGGUGG

>  <self-splicing fitness (ln)>
-1.25

$$$$
>  <sequence.record>
UGUAAGCAAUAUUACGCACU

>  <self-splicing fitness (ln)>
-0.349

$$$$
>  <sequence.record>
AGCGAGCAAUAUUACGUCUU

>  <self-splicing fitness (ln)>
-2.08

$$$$
>  <sequence.record>
GUCCAGCAAUAUUACGCAAC

>  <self-splicing fitness (ln)>
-0.844

$$$$
>  <sequence.record>
UCCAAGCAAUAUUACGGCGG

>  <self-splicing fitness (ln)>
-0.773

$$$$
>  <sequence.record>
GCCUAGCAAUAUUACGUCUU

>  <self-splicing fitness (ln)>
-1.68

$$$$
>  <sequence.record>
CCGAAGCAAUAUUACGGGAC

>  <self-splicing fitness (ln)>
-3.3

$$$$
>  <sequence.record>
CGCUAGCAAUAUUACGAGAA

>  <self-splicing fitness (ln)>
-1.99

$$$$
>  <sequence.record>
AAGUAGCAAUAUUACGAGGU

>  <self-splicing fitness (ln)>
-1.97

$$$$
>  <sequence.record>
ACGGAGCAAUAUUACGUCGG

>  <self-splicing fitness (ln)>
-0.422

$$$$
>  <sequence.record>
GUCCAGCAAUAUUACGAAUC

>  <self-splicing fitness (ln)>
0.114

$$$$
>  <sequence.record>
CCCGAGCAAUAUUACGCCGA

>  <self-splicing fitness (ln)>
-2.14

$$$$
>  <sequence.record>
CAGUAGCAAUAUUACGUACG

>  <self-splicing fitness (ln)>
0.0818

$$$$
>  <sequence.record>
UUUAAGCAAUAUUACGUUAU

>  <self-splicing fitness (ln)>
-2.16

$$$$
>  <sequence.record>
GAUAAGCAAUAUUACGAGCG

>  <self-splicing fitness (ln)>
-0.755

$$$$
>  <sequence.record>
GGCAAGCAAUAUUACGCUCC

>  <self-splicing fitness (ln)>
-1.07

$$$$
>  <sequence.record>
GUUCAGCAAUAUUACGGGAU

>  <self-splicing fitness (ln)>
-1.58

$$$$
>  <sequence.record>
AGCCAGCAAUAUUACGACCC

>  <self-splicing fitness (ln)>
-0.503

$$$$
>  <sequence.record>
ACCCAGCAAUAUUACGAUCG

>  <self-splicing fitness (ln)>
-0.696

$$$$
>  <sequence.record>
UAUAAGCAAUAUUACGCUUG

>  <self-splicing fitness (ln)>
-0.76

$$$$
>  <sequence.record>
UUUGAGCAAUAUUACGGUAU

>  <self-splicing fitness (ln)>
-2.73

$$$$
>  <sequence.record>
GGUAAGCAAUAUUACGACUU

>  <self-splicing fitness (ln)>
0.0617

$$$$
>  <sequence.record>
CAGGAGCAAUAUUACGCAGG

>  <self-splicing fitness (ln)>
-1.37

$$$$
>  <sequence.record>
CUUUAGCAAUAUUACGGGUA

>  <self-splicing fitness (ln)>
-2.56

$$$$
>  <sequence.record>
UGUGAGCAAUAUUACGAGGA

>  <self-splicing fitness (ln)>
-2.89

$$$$
>  <sequence.record>
UUUCAGCAAUAUUACGACGC

>  <self-splicing fitness (ln)>
-1.67

$$$$
>  <sequence.record>
GAACAGCAAUAUUACGCCCC

>  <self-splicing fitness (ln)>
-0.835

$$$$
